Assay: Cell viability (PI staining) in the dendritic cell activation assay
Conditions: human, U937 cells, %Viability, Experiment 1, 48 h, control printed for each of three test series
experimental readout: viability at 48 h, 200 µg/mL (%)
All answers are understood in %, so give the number only.

## Task Fill blank: measured viability at 48 h, 200 µg/mL of the molecule CC(O)C(=O)O (stereo not shown) [lactic acid] is ____.
## Result 97.4

###

System: Artemin
Experiment: FICZ-induced Artemin mRNA expression by qPCR in HaCaT cells
Format: cell-based
Conditions: Homo sapiens, 5 μM FICZ, 24 h, qPCR normalized to GAPDH, read-out: IC50 of decrease of FICZ-induced Artemin expression
experimental readout: IC50 (µM)
All answers are understood in µM, so give the number only.

## Task Fill blank: measured IC50 of the compound C=CC(C)(O)CCC=C(C)C (stereo not shown) [Linalool] is ____.
## Result 194

Just for reference, paper PMC10769034 is where these values come from.
